# Tested on: IL-1β release from THP-1 cells
# assay.explanation: IL-1β Release Assay (Alternate Method), THP-1 cells
# Format: cell-based, human
# condition.context: Homo sapiens, THP-1, read-out: IL-1β % inhibition
Known inhibition at 0.3 µM of a selection of molecules

# count of solved cases: 2
{"molecule": "O=C(Nc1ncnc2c1CCN(Cc1ccccc1)C2)C12CC3CC(CC(C3)C1)C2", "experimental.value": "50 to 75%"}
{"molecule": "O=C(Nc1ncnc2c1CCN(S(=O)(=O)c1ccccc1)C2)C12CC3CC(CC(C3)C1)C2", "experimental.value": "25 to 50%"}

QUERY: inhibition at 0.3 µM of O=C(CC12CC3CC(CC(C3)C1)C2)Nc1ncnc2c1CCN(CCCO)C2 on IL-1β release from THP-1 cells?
RESULT: 0 to 25%

QUERY: Also, O=C(CC12CC3CC(CC(C3)C1)C2)Nc1ncnc2c1CCN(S(=O)(=O)c1ccccc1)C2 please.
RESULT: 0 to 25%

QUERY: Also, O=C(CC12CC3CC(CC(C3)C1)C2)Nc1ncnc2c1CCN(CC(O)CO)C2 (stereo not shown) please.
RESULT: 0 to 25%

QUERY: Also, O=C(CC12CC3CC(CC(C3)C1)C2)Nc1ncnc2c1CCN(Cc1ccccc1)C2 please.
RESULT: 25 to 50%

QUERY: Also, O=C(CC12CC3CC(CC(C3)C1)C2)Nc1ncnc2c1CCN(CCO)C2 please.
RESULT: 0 to 25%

###

# System: IL-1β release from THP-1 cells
# assay.explanation: IL-1β Release Assay (Alternate Method), THP-1 cells
# Type: cell-based, human
# condition.context: Homo sapiens; at 0.3 μM; THP-1 cells; read-out: IL-1β % inhibition
Known inhibition at 0.3 µM of a selection of compounds

QUERY: What does the data say about its inhibition at 0.3 µM? Entry: CC(C)(C(=O)Nc1ncnc2c1CCN(C(=O)c1c(F)cccc1F)C2)C12CC3CC(CC(C3)C1)C2 [Compound 361]
RESULT: 0 to 25%

QUERY: Also, O=C(NCC12CC3CC(CC(C3)C1)C2)c1ncnc2c1CCN(Cc1ccc(F)cc1F)C2 [Compound 137] please.
RESULT: 50 to 75%

QUERY: Also, O=C(CC12CC3CC(CC(C3)C1)C2)Nc1ncnc2c1CCN(Cc1ccc3c(c1)OCCO3)C2 [Compound 46] please.
RESULT: > 75%

QUERY: Also, Cc1ncc2c(c1C(=O)NCC13CC4CC(CC(C4)C1)C3)CCN(Cc1ccccc1)C2 [Compound 368] please.
RESULT: 0 to 25%

QUERY: Also, COCC(O)CN1CCc2c(ncnc2NC(=O)CC23CC4CC(CC(C4)C2)C3)C1 (centres unmarked) [Compound 13] please.
RESULT: 0 to 25%

###

Known inhibition at 0.3 µM of a selection of compounds
# System: IL-1β release from THP-1 cells
# assay.explanation: IL-1β Release Assay (Alternate Method), THP-1 cells
# Format: cell-based, human
# condition.context: Homo sapiens; at 0.3 μM; THP-1 cells; read-out: IL-1β % inhibition
# Method: THP-1 cells (ATCC Cat #285-IF-100) are plated in 96 well plates at a concentration of 200,000 cells per well and allowed to differentiate in RPMI-1640 media (ATCC Cat #30-2001) containing 10% FBS, 100 IU/mL penicillin, 100 ug/mL streptomycin, 100 ng/mL LPS and 100 ng/mL IFN-γ for 16 hours. […] 30 uL of cell supernatant is then collected and IL-1β levels determined via ELISA (R&D systems Cat. #HSLB50) according to manufacturer's recommendations using the Tecan Safire plate reader. […]

{"smiles.string": "O=C(CC12CC3CC(CC(C3)C1)C2)Nc1ncnc2c1CCN(C(=O)c1ccccc1)C2", "inhibition at 0.3 µM": "> 75%"}
{"smiles.string": "O=C(CC12CC3CC(CC(C3)C1)C2)Nc1ncnc2c1CCNC2", "inhibition at 0.3 µM": "0 to 25%"}
{"smiles.string": "CC12CC3CC(C)(C1)CC(CC(=O)Nc1ncnc4c1CCN(Cc1ccccc1)C4)(C3)C2", "inhibition at 0.3 µM": "25 to 50%"}
{"smiles.string": "O=C(CC12CC3CC(CC(C3)C1)C2)Nc1ccnc2c1CCN(Cc1ccccc1)C2", "inhibition at 0.3 µM": "0 to 25%"}
{"smiles.string": "O=C(NCC12CC3CC(CC(C3)C1)C2)c1ncnc2c1CCN(Cc1ccccc1)C2", "inhibition at 0.3 µM": "> 75%"}

Kindly review the next compound as well.
QUERY: inhibition at 0.3 µM of O=C(c1ccccc1)N1CCc2c(ncnc2NC(=O)C23CC4CC(CC(C4)C2)C3)C1 on IL-1β release from THP-1 cells?
RESULT: 25 to 50%
